This collection of values is drawn from paper PMC10786891.

Target: T1, EsCas13d, nuclease-dead (Eubacterium siraeum, UniProt B0MS50, R295A;H300A;R849A;H854A)
T1 sequence: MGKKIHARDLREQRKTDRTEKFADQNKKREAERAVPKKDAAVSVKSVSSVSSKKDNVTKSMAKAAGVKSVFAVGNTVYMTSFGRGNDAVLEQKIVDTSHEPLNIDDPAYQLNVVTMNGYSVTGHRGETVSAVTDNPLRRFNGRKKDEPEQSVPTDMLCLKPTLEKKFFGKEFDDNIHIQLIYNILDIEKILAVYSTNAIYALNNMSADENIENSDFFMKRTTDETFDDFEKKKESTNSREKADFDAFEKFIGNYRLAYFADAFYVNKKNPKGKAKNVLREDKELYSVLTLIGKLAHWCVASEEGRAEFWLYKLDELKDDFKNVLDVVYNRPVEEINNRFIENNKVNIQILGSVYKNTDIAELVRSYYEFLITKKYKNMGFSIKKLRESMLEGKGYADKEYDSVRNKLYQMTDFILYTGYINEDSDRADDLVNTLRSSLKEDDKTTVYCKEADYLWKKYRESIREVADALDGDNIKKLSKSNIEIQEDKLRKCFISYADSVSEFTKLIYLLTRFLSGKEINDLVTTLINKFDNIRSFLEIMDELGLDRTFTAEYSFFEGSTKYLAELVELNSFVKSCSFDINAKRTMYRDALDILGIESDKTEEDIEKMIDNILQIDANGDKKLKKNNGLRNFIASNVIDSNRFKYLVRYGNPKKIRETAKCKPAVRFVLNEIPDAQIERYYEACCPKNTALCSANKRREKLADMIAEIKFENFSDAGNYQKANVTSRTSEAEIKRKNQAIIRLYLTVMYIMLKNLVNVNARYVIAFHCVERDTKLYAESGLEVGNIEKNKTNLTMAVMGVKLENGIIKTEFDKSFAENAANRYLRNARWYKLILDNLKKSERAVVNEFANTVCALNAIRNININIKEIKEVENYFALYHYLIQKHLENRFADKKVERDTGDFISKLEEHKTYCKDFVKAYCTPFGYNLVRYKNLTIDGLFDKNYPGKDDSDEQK
Assay: crRNA (strand 1, pre-loaded); Mg2+; 40 mM Tris-HCl pH 7.5, 150 mM NaCl, 6 mM MgCl2, 1 mM DTT, 0.1% Tween-20, 0.2 mg/ml BSA; 25 C; 10 min per concentration, then washed
Details: tags: His6-TwinStrep-SUMO cleaved; N-terminal SNAP kept (SNAP-Surface 488); label: 3' end held by stalled T7 RNA polymerase
assayEndpoint: Kd

Completed entries (count: 3):
* target 1 C7A,A18U (mixed) RNA 1: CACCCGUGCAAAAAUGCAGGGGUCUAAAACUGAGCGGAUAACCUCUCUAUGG RNA 2: GGGAAUGGAUCCACAUCUACGAAUUCGUACCAUUGAGAGGUUAUACGCUCACCGAGAUCGGAAGAGCACACGU | 36.4 nM
* target 1 insC 3' of 8,insG 3' of 6 (mixed) RNA 1: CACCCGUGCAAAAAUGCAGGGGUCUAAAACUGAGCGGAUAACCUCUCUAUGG RNA 2: GGGAAUGGAUCCACAUCUACGAAUUCGUACCAUAGAGAGGUUAUCCCGGCUCACCGAGAUCGGAAGAGCACACGU | 17.1 nM
* target 3 insC 3' of 4,insA 3' of 2 (mixed) RNA 1: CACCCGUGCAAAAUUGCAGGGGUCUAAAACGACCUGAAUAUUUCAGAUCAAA RNA 2: GGGAAUGGAUCCACAUCUACGAAUUCGUUUUUGAUCUGAAAUAUUCAGCGUACUGCAGAUCGGAAGAGCACACGU | 23.9 nM

Okay, now this binder:
// Kd lookup, binder = target 1 G5U,C6A (mixed) RNA 1: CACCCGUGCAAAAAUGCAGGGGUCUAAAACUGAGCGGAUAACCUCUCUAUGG RNA 2: GGGAAUGGAUCCACAUCUACGAAUUCGUACCAUAGAGAGGUUAUCAUCUCACCGAGAUCGGAAGAGCACACGU , result: 24.3 nM
